Test: Confirmatory qHTS for Inhibitors of ATXN expression; also: nearly all actives have a fitted effect of over 65% in size; also: potency is read from the fitted curve at half-maximal effect
Conditions: ATXN2-luciferase reporter cells, luminescence, 24 h; series mostly up to 11.5 µM
Screen size: about 2,100 compounds; about 940 (45%) were called active. Not shown: some 48% with an inconclusive outcome. So high a share suggests a set chosen from earlier hits. This is one part of the list.
assay-endpoint: Potency

compound: CN(C)C(=O)c1cccc(-c2cnc3c(NC=O)cc(-c4ccc(F)cc4)cn23)c1
value-reported: inactive

compound: COc1ccc(CC(N)c2csc(NC(=O)c3ccccc3OC)n2)cc1 (configuration not stated)
value-reported: inactive

compound: COc1ccc(-c2cc(NC=O)c3ncc(-c4cccc(C(=O)NCCN(C)C)c4)n3c2)cc1
value-reported: inactive

compound: CC(=NNC(=O)c1ccncc1)c1ccc(O)cc1O
value-reported: 12.6 µM (active)

compound: CCOC(=O)Nc1ccc(N2CCOCC2)c(S(=O)(=O)Nc2ccc(Cl)cc2)c1
value-reported: inactive

compound: Cc1cc(C)cc(NC(=O)CSc2nc3[nH]ncc3c(=O)[nH]2)c1
value-reported: 2.51 µM (active)

-- ask I have this compound here, O=S(=O)([N-]c1nc2ccccc2nc1-[n+]1ccc(Cc2ccccc2)cc1)c1ccc(Br)s1 , and I need its recorded Potency.
-- reply 8.91 µM (active)
